experiment: Cytotoxicity against human PANC1 cells assessed as reduction in cell viability after 48 hrs by MTT assay; format: functional, cell-based; settings: PANC-1, 48 h
pIC50: −log10 of the molar value.
measureName: pIC50

{"structureAsSmiles": "CC[C@]12CCCN3CCc4c(n(c5ccccc45)[C@@H](c4ccc(O)c5c4N=C4CC[C@]6(CC)CCCN7CC[C@@]45[C@@H]76)C1)[C@@H]32", "numericReadout": 4.55}

====

test: Cytotoxicity against human HT-29 cells assessed as reduction in cell viability after 48 hrs by MTT assay; assay type: functional, cell-based; conditions: HT-29, 48 h
pIC50: −log10 of the molar value.
measureName: pIC50

{"structureAsSmiles": "CC[C@]12CCCN3CCc4c(n(c5ccccc45)[C@@H](c4ccc(O)c5c4N=C4CC[C@]6(CC)CCCN7CC[C@@]45[C@@H]76)C1)[C@@H]32", "measureName": "pIC50", "numericReadout": 5.31}
